// fraction unbound at 4 h, 5 µM lookup, one value per entry
# Protocol Text: Protein binding in human plasma at 5 uM incubated for 4 hrs by LC-MS/MS analysis
# Format: ADME, cell-free
# Particulars: read-out: PPB (converted)
Output: the number by itself.

Before answering, review these 2 worked examples.
* O=C(O)Cc1ccccc1NC(=O)c1cccc(-c2ccc(Cl)c(O[C@@H]3CCCNC3)c2)c1F | 0.04
* NCc1cc(-c2cccc(C(=O)Nc3ccccc3CC(=O)O)c2)ccc1Cl | 0.021

# context switch: different compound, same fraction unbound at 4 h, 5 µM
Recorded fraction unbound at 4 h, 5 µM of "O=C(O)Cc1ccccc1NC(=O)c1cccc(-c2ccc(Cl)c(O[C@H]3CCCNC3)c2)c1F" , please. 0.014

====

# Protocol Text: Ionization constant (acid), pKa of the compound by UV metric assay
# Assay type: physicochemical
Endpoint Name: pKa
Output: the number by itself.

Before answering, review these 3 worked examples.
- NCc1cccc(-c2cccc(COc3ccccc3CC(=O)O)c2)c1: 4.4
- O=C(O)Cc1ccccc1NC(=O)c1cccc(-c2ccc(Cl)c(OC3CCNCC3)c2)c1: 4.1
- O=C(O)Cc1ccccc1NC(=O)c1cccc(-c2ccc(Cl)c(OC3CCCNC3)c2)c1 (centres undefined): 4.1

# context switch: different compound, same pKa
Recorded pKa of "NCc1cccc(-c2cccc(C(=O)Nc3ccccc3CC(=O)O)c2)c1" , please. 4

====

# Protocol Text: Intrinsic clearance in rat liver microsomes
# Type: ADME, Microsome
# Particulars: read-out: CLH
Endpoint Name: microsomal CLint (µL/min/mg)
Respond with the bare value in µL/min/mg.

Recorded microsomal CLint of O=C(O)CC(NC(=O)c1cccc(-c2ccc(Cl)cc2)c1)c1cccnc1 (stereo unspecified) , please. 25

====

# Protocol Text: Ionization constant (base), pKa of the compound
# Format: physicochemical
// pKa lookup, one value per entry
Output: the number by itself.

• O=C(O)Cc1ccccc1NC(=O)c1cccc(-c2ccc(Cl)c(OC3CCNCC3)c2)c1 = 9.9
• O=C(O)Cc1ccccc1NC(=O)c1cccc(-c2ccc(Cl)c(OC3CCCNC3)c2)c1 (centres undefined) = 9.4
• NCc1cccc(-c2cccc(C(=O)Nc3ccccc3CC(=O)O)c2)c1 = 9.5

# context switch: different molecule, same pKa
Recorded pKa of "NCc1cccc(-c2cccc(COc3ccccc3CC(=O)O)c2)c1" , please. 9.4

====

# Protocol Text: Permeability of compound by PAMPA assay
# Format: ADME
Threshold check on log(permeability): strictly below -4 is Yes; on or above -4 is No.

Some entries whose results are on file:
- O=C(O)Cc1ccccc1NC(=O)c1cccc(-c2ccc(Cl)cc2)c1: No
- O=C(O)Cc1ccccc1NC(=O)c1cccc(-c2ccc(Cl)c(OC3CNC3)c2)c1: Yes
- NCc1cccc(-c2cccc(COc3ccccc3CC(=O)O)c2)c1: Yes
- O=C(O)Cc1ccccc1NC(=O)c1cccc(-c2ccc(Cl)c(OC3CCNCC3)c2)c1: Yes
- NCc1cc(-c2cccc(C(=O)Nc3ccccc3CC(=O)O)c2)ccc1Cl: Yes

In plain terms, does "O=C(O)C[C@H](NC(=O)c1cccc(-c2ccc(Cl)cc2)c1)c1cccnc1" come in under -4 for log(permeability)? Yes

In plain terms, does "CN1CCN(Cc2ccc(-c3cccc(C(=O)Nc4ccccc4CC(=O)O)c3)cc2)CC1" come in under -4 for log(permeability)? Yes
